tested on: 253994-281-T-J1-PDC KRAS-mutant spheroids with HUVEC/MSC, viability; assay: Anticancer human tumor 253994-281-T-J1-PDC patient-derived colorectal carcinoma cell line growth inhibition [KRAS2]; settings: second compound 0.316 µM; first compound 1 µM; hits give low values;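 also: spheroids exposed to agents for seven days before readout; percent of DMSO vehicle control viability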
viability, T/C reference
State just the number; it will be interpreted in %.

# example entries with known answers
# MOLECULE, viability, T/C / %
records = [
    ("CC1(C)CCC(CN2CCN(c3ccc(C(=O)NS(=O)(=O)c4ccc(NCC5CCOCC5)c([N+](=O)[O-])c4)c(Oc4cnc5[nH]ccc5c4)c3)CC2)=C(c2ccc(Cl)cc2)C1 + C=CC(=O)N1CCN(c2nc(=O)n(-c3c(C)ccnc3C(C)C)c3nc(-c4c(O)cccc4F)c(F)cc23)C(C)C1", 98.8),
    ("CCN1CCN(Cc2ccc(Nc3ncc(F)c(-c4cc(F)c5nc(C)n(C(C)C)c5c4)n3)nc2)CC1 + CNCc1ccccc1-c1csc(C(C)Nc2nc(C)nc3cc(OC)c(OC)cc23)c1", 31.4),
    ("COc1cc2nccc(Oc3ccc(NC(=O)C4(C(=O)Nc5ccc(F)cc5)CC4)cc3)c2cc1OC + COc1cc2nc(C)nc(NC(C)c3cc(N)cc(C(F)(F)F)c3)c2cc1OC1CCOC1", 109),
]

Now examine the next entry.
Data request: Input CC(=O)OC12COC1CC(O)C1(C)C(=O)C(O)C3=C(C)C(OC(=O)C(O)C(NC(=O)OC(C)(C)C)c4ccccc4)CC(O)(C(OC(=O)c4ccccc4)C21)C3(C)C (centres undefined) + C=CC(=O)N1CCN(c2nc(=O)n(-c3c(C)ccnc3C(C)C)c3nc(-c4c(O)cccc4F)c(F)cc23)C(C)C1 , output reported viability, T/C.
Data returned: 25.9

Taken from PubChem BioAssay AID1963874.
